Reference for the values: patent US6693108B2

I'd be grateful if you could share measured Ki for these entries.
Target: activated JNK3 (Homo sapiens)
Construct: One such construct encodes amino acid residues Ser40-Glu402 of JNK3α1 and is preceded by Met and Gly residues; Met-Gly (initiation Met plus Gly added to create the NcoI site) (N)
Sequence (P53779 40-402): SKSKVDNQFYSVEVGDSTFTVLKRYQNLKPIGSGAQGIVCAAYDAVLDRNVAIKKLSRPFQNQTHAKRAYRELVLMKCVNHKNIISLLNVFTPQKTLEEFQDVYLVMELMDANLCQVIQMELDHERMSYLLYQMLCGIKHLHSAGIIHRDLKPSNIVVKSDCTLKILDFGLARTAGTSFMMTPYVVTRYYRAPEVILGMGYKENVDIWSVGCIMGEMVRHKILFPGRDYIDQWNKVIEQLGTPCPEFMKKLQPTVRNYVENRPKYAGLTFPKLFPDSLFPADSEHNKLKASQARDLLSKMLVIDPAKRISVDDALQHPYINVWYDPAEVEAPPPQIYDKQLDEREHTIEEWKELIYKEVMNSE
Assay: JNK3 inhibition, spectrophotometric coupled-enzyme assay
Settings: read-out: Activity in the JNK3 Inhibition Assay (Ki rating)

Consider the reported Ki for these compounds:
# Compound, Tested target, Measured
rows = [
    ("Cc1ccc(C(=O)Nc2nccc(-c3c(-c4ccccc4F)noc3C)n2)cc1 [IIIA-60]", "activated JNK3 (Homo sapiens)", "100 to 1000 nM"),
    ("COc1ccc(Nc2nccc(-c3c(-c4ccccc4)noc3C)n2)c(C)c1 [IIA-61]", "activated JNK3 (Homo sapiens)", "< 100 nM"),
    ("COc1cccc(-c2noc(C)c2-c2ccnc(Nc3ccccc3)n2)c1OC [IIA-85]", "activated JNK3 (Homo sapiens)", "> 1000 nM"),
    ("Cc1onc(-c2ccc(Cl)c(Cl)c2)c1-c1ccnc(Nc2ccccc2)n1 [IIA-15]", "activated JNK3 (Homo sapiens)", "100 to 1000 nM"),
    ("COc1ccc(C(=O)Nc2nccc(-c3c(-c4ccccc4)noc3C)n2)c(OC)c1 [IIIA-9]", "activated JNK3 (Homo sapiens)", "> 1000 nM"),
]

Record Ki for all entries; do not skip any.
1. COc1ccc(C(=O)Nc2nccc(-c3c(-c4ccccc4F)noc3C)n2)cc1 [IIIA-58]
2. COc1ccc(Nc2cc(-c3c(-c4ccccc4)noc3C)ccn2)cc1 [IIA-47]
3. COc1cc(OC)cc(C(=O)Nc2nccc(-c3c(-c4cccc(F)c4)noc3C)n2)c1 [IIIA-47]
4. Cc1onc(-c2ccccc2)c1-c1ccnc(Nc2cccc3ccccc23)n1 [IIAA-13]

1. 100 to 1000 nM
2. < 100 nM
3. 100 to 1000 nM
4. < 100 nM
